// data source = ChEMBL document CHEMBL4739718

Target: Cyclin-dependent kinase 7 (Homo sapiens)
Sequence (P50613 whole entry): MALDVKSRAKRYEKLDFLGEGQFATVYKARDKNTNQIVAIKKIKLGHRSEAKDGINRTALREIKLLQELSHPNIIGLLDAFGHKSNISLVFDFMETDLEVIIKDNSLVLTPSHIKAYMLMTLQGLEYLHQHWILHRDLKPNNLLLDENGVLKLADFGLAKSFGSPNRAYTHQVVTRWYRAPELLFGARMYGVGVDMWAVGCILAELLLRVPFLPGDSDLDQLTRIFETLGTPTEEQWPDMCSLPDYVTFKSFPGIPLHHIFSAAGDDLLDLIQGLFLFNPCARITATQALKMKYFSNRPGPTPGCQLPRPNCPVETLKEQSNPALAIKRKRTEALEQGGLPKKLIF
measured-metric: IC50

q: Which IC50 value belongs to CC(C(=O)Nc1cc(C2CC2)[nH]n1)c1ccc(-c2ccc(NC(=O)/C=C/CN3CCOCC3)cc2)cc1 (stereo in doubt; 12) ?
a: > 10 µM
